# run description: qHTS drug screen for cell cycle checkpoint inhibitors in PARPi-resistant BRCA-mutant ovarian cancer cell lines. (AID 1963452)
# cond: PEO1/OlaR viability, CellTiter-Glo luminescence, 96 h; measured here: PEO4 Z-AUC; stronger effect = lower value
Where a SMILES comes first, the peptide text is derived from it. Bridges are numbered along the chain shown (N, C = ends). [ ]: non-standard residue; d: D form. The star is where a group is joined. X1 = CCC(C)C(N)C1=NC(C(=O)*)CS1; dOrn = NCCC[C@@H](N)C(=O)O
Reported values of Z-AUC for individual entries

compound: CCCOc1ccn2c(C(C)=O)cc(-c3ccccc3S(C)(=O)=O)c2c1
Z-AUC: 1.78

compound: C=Cc1cc(O)cc2nc(-c3ccc(O)c(F)c3)oc12
Z-AUC: 0.548

compound: CON(C)C(=O)N1N=C(c2cc(F)ccc2F)S[C@@]1(CCCN)c1ccccc1
Z-AUC: -2.54

compound: CN(NC(=O)CC(=O)NN(C)C(=S)c1ccccc1)C(=S)c1ccccc1
Z-AUC: 1.36

compound: NS(=O)(=O)NCCNc1nonc1C(=Nc1ccc(F)c(Br)c1)NO
Z-AUC: 1.08

compound: CC(C)C(=O)OCC(=O)[C@@]12O[C@H](C3CCCCC3)O[C@@H]1C[C@H]1[C@@H]3CCC4=CC(=O)C=C[C@]4(C)[C@H]3[C@@H](O)C[C@@]12C
Z-AUC: -0.69

compound: CCC(C)C(N)C1=NC(C(=O)N[C@@H](CC(C)C)C(=O)N[C@H](CCC(=O)O)C(=O)N[C@H](C(=O)N[C@H]2CCCCNC(=O)[C@H](CC(N)=O)NC(=O)[C@@H](CC(=O)O)NC(=O)[C@H](Cc3cnc[nH]3)NC(=O)[C@@H](Cc3ccccc3)NC(=O)[C@H]([C@@H](C)CC)NC(=O)[C@@H](CCCN)NC2=O)[C@@H](C)CC)CS1 (stereo partly drawn) (X1-L[dE]IK[dOrn]I[dF]H[dD]N; lactam 4-C)
Z-AUC: 0.703

compound: NCc1ccc(OCCCc2sc(-c3ccc4c(c3)/C(=N/Nc3nc5ccccc5s3)CCC4)nc2C(=O)O)cc1
Z-AUC: 0.501

compound: O=C(Nc1cccnn1)N1CCC(=Cc2cccc(Oc3ccc(C(F)(F)F)cn3)c2)CC1
Z-AUC: -0.803

compound: CCS(=O)(=O)N1CCC([C@@H](C)n2c(C)c(C(=O)NCc3c(OC)cc(C)[nH]c3=O)c3ccccc32)CC1
Z-AUC: -0.124

compound: C[C@H]1[C@H](C)CC[C@]2(C(=O)O)CC[C@]3(C)C(=CC[C@@H]4[C@@]5(C)C[C@@H](O)[C@H](O)[C@@](C)(CO)[C@@H]5CC[C@]43C)[C@H]12
Z-AUC: 0.842

compound: CCC(=O)NS(=O)(=O)c1ccc(-c2c(-c3ccccc3)noc2C)cc1
Z-AUC: -1.33

compound: COc1cc(N2CCC(N(C)C)CC2)ccc1Nc1ncc(Cl)c(Nc2ccccc2P(C)(C)=O)n1
Z-AUC: -1.64

====

# run description: Drug repurposing screens with cells derived from glioblastoma tumor samples (AID 1345199); further: on the % scale 0 is the no-effect control and ±100 the full control effect; nearly all actives have a fitted effect of over 40% in size
# cond: GBM patient neurospheres viability, ATP luminescence, 48 h; at 46.1 µM (top of the series); tumour line C
Results filed as inconclusive are left out.
reported endpoint: activity, negative = cell killing (%)

compound: O=C(COc1ccc(Cl)cc1)OCCNC12CC3CC(CC(C3)C1)C2
unit abbreviation: %
value observed: -2.27

compound: CO[C@H]1C=CO[C@@]2(C)Oc3c(C)c(O)c4c(O)c(c5c(c4c3C2=O)=NC2(CCN(CC(C)C)CC2)N=5)NC(=O)/C(C)=C\C=C/[C@H](C)[C@H](O)[C@@H](C)[C@@H](O)[C@@H](C)[C@H](OC(C)=O)[C@@H]1C
unit abbreviation: %
value observed: 33.4

compound: CN(C)CCCN1c2ccccc2C(C)(C)c2ccccc21
unit abbreviation: %
value observed: 1.86

compound: CC(=O)Oc1c(C)cc(OCC(O)CNC(C)C)c(C)c1C (centres undefined)
unit abbreviation: %
value observed: 13.3

compound: O=C(O)C1CCCN1 (centres undefined)
unit abbreviation: %
value observed: -1.4

compound: C[C@]12O[C@H](C[C@]1(O)CO)n1c3ccccc3c3c4c(c5c6ccccc6n2c5c31)CNC4=O
unit abbreviation: %
value observed: -97.6

compound: IC(I)I
unit abbreviation: %
value observed: 2.5

compound: CCC(=O)NS(=O)(=O)c1ccc(-c2c(-c3ccccc3)noc2C)cc1
unit abbreviation: %
value observed: -3.29

compound: C[C@]12CCC(=O)C=C1CC[C@@H]1[C@@H]2[C@@H](O)C[C@@]2(C)[C@H]1CC[C@]2(O)C(=O)COP(=O)(O)O
unit abbreviation: %
value observed: -20.1

====

# Tested on: 7G8
# run description: qHTS profiling for inhibitors of Plasmodium falciparum proliferation (AID 504749); further: nearly all actives have a fitted effect of over 60% in size
# cond: P. falciparum in erythrocytes, SYBR Green DNA, 72 h; series mostly up to 28.7 µM
Results filed as inconclusive are left out. Activity calls are given as the source filed them. Calls follow the shape of the dose curve; as a rule, active = well fitted inhibition curve with a large enough effect; inconclusive = small, poorly fitted or top-dose-only effect; inactive = flat fitted curve, though single readings scatter.
Outcomes: YES (active), NO (inactive)

compound: CCOC(C)=O
answer label: NO

compound: CCCCCCOc1ccc(C(=N)N(CCCC)CCCC)c2ccccc12
answer label: YES

compound: CCC(=O)NCCC1CCc2ccc3c(c21)CCO3 (configuration not stated)
answer label: NO

compound: O=C(Nc1cccc(C(F)(F)F)c1)c1cc(Br)cc(Br)c1O
answer label: YES

compound: CC(C(=O)O)c1ccc(N2Cc3ccccc3C2=O)cc1 (configuration not stated)
answer label: NO

compound: COC(F)(F)C(Cl)Cl
answer label: NO

compound: CC1=C(/C=C/C(C)=C/C=C/C(C)=C/C=C/C=C(C)/C=C/C=C(C)/C=C/C2=C(C)CCCC2(C)C)C(C)(C)CCC1
answer label: NO

compound: CCOc1ccc2c(c1)C(C)=CC(C)(C)N2
answer label: NO

compound: O=C(O)CCC(=O)C(=O)O
answer label: NO

compound: CC1(C)S[C@@H]2[C@H](NC(=O)[C@@H](NC(=O)N3CCNC3=O)c3ccccc3)C(=O)N2[C@H]1C(=O)O
answer label: NO

compound: C[C@]12O[C@H](C[C@]1(O)CO)n1c3ccccc3c3c4c(c5c6ccccc6n2c5c31)CNC4=O
answer label: YES

compound: C[C@]12CCC(=O)C=C1CC[C@@H]1[C@@H]2[C@@H](O)C[C@@]2(C)[C@H]1CC[C@]2(O)C(=O)COP(=O)(O)O
answer label: NO

====

# Test system: CRL-7250
# run description: Cytotoxic Profiling of Annotated Libraries Using Quantitative High-Throughput Screening (AID 1296008); further: on the % scale 0 is the no-effect control and ±100 the full control effect; nearly all actives have a fitted effect of over 60% in size
# cond: Five cell lines viability, CellTiter-Glo ATP luminescence, 48-72 h; stronger effect = lower value
Inconclusive results are not listed.
Reported values of max response for individual entries

compound: COc1cc(/C=C/C(=O)OC2CC(OC(C)=O)C(OC(C)=O)C3C2CCC2C(=O)OC(c4ccoc4)CC23C)ccc1O[C@@H]1O[C@H](CO)[C@@H](O)[C@H](O)[C@H]1O (stereo partly drawn)
assayed target: CRL-7250
max response / %: -8.1
//
compound: CCC(C)(O)C(O)C(=O)OCc1ccc(O[C@@H]2O[C@H](CO)[C@@H](O)[C@H](O)[C@H]2O)cc1 (stereo partly drawn)
assayed target: CRL-7250
max response / %: -2.71
//
compound: CCCCNC(=O)[C@@H]1Cc2ccccc2N1C(=O)[C@@H](N)CC
assayed target: CRL-7250
max response / %: -0.785
//
compound: COc1cc(-c2cccc(O)c2)cc2c1OCO2
assayed target: CRL-7250
max response / %: -4.5
//
compound: O=C(O[C@H]1[C@@H]2C=CO[C@@H](O[C@@H]3O[C@H](CO)[C@@H](O)[C@H](O)[C@H]3O)[C@@H]2[C@@]2(CO)O[C@@H]12)c1ccc(O)cc1
assayed target: CRL-7250
max response / %: 1.96
//
compound: C[C@@H]1O[C@@H](O[C@H]2[C@H](OC(=O)[C@]34CCC(C)(C)C[C@H]3C3=CCC5[C@@]6(C)CC[C@H](O[C@@H]7O[C@H](CO[C@@H]8OC[C@H](O)[C@H](O)[C@H]8O)[C@@H](O)[C@H](O)[C@H]7O)C(C)(C)C6CC[C@@]5(C)[C@]3(C)C[C@H]4O)OC[C@@H](O)[C@@H]2O)[C@H](O)[C@H](O)[C@H]1O[C@@H]1OC[C@H](O)[C@H](O[C@@H]2OC[C@@H](O)[C@H](O)[C@H]2O)[C@H]1O (stereo partly drawn)
assayed target: CRL-7250
max response / %: -0.806
//
compound: C=CC(C)(C)C12CC3C(=O)NC(Cc4cnc[nH]4)C(=O)N3C1Nc1ccccc12 (stereo not drawn)
assayed target: CRL-7250
max response / %: -2.57
//
compound: C=C(C(=O)O)C1CCC(C)C2CCC(=O)OC2(C)C1 (stereo not drawn)
assayed target: CRL-7250
max response / %: 4.24
//
compound: CCC(=O)O[C@]1(C(=O)CCl)[C@@H](C)C[C@H]2[C@@H]3C[C@H](F)C4=CC(=O)C=C[C@]4(C)[C@@]3(F)[C@@H](O)C[C@@]21C
assayed target: CRL-7250
max response / %: -3.75
//
compound: CC(c1c[nH]c2ccccc12)C(O)C(=O)O (stereo not drawn)
assayed target: CRL-7250
max response / %: -1.71
//
compound: CC(CO[C@@H]1O[C@H](COC(=O)/C=C/c2ccc(O)c(O)c2)[C@@H](O)[C@H](O)[C@H]1O)C1(O)COC(=O)C1 (stereo partly drawn)
assayed target: CRL-7250
max response / %: -2.89
//
compound: CC1(CCC(=O)O)C(=O)C=CC23CC4CC(OC4(C)C2O)C13 (stereo not drawn)
assayed target: CRL-7250
max response / %: 3.62
//
compound: CC1OC(OC2C(C)OC(OC3C(OC(=O)/C=C/c4ccc(O)cc4)C(CO)OC(OC4(COC(=O)/C=C/c5ccc(O)cc5)OC(CO)C(O)C4O)C3OC3OCC(O)(CO)C3O)C(O)C2O)C(O)C(O)C1O (stereo not drawn)
assayed target: CRL-7250
max response / %: -0.0903

Hey, just so you know, these numbers are from PubChem BioAssay (NCATS).
